Source of measurements: paper PMC4584933

# System: SLA-2*05:02
# Protocol details: Peptide-MHC class I complex stability, scintillation proximity assay (SPA)
# Design: species or system pig
# Test context: biotinylated recombinant SLA heavy chain, 125I-β2m, excess unlabeled β2m, read every 40 min, number only if t1/2 ≥ 0.5 h, '-' = not stably binding
Recorded endpoint: Binder (t1/2 ≥ 0.5 h): half-life of peptide-SLA-2*05:02 complex

{"columns": ["Seq text", "Unit", "Value"],
 "data": [
  ["DVILMCFSI [RhoC12, porcine RhoC-derived 9-11mer peptide]", "h", 5.9],
  ["DLRQDEHTR [RhoC6, porcine RhoC-derived 9-11mer peptide]", "h", 0.5],
  ["EVKHFCPNVPI [RhoC24, porcine RhoC-derived 9-11mer peptide]", "h", 5.6]
]}
